Numbers sourced from patent US20160120853A1.

- METHOD_SUMMARY: blood levels of tacrolimus after one 0.3 mg oral capsule in healthy human volunteers
- Format: in vivo
- EXPERIMENTAL_SETUP: human, blood; 0.3 mg oral capsule, healthy volunteers; read-out: average area under the curve AUC 0-t
- Experimental: A hard gelatine capsule was filled with the following composition: One oral capsule as above containing 0.3 mg tacrolimus was administered to groups of healthy human volunteers. […] The average trough level of tacrolimus (level after 24 hours of administration of each dose) observed was approximately 220 pg/mL.
MEASUREMENT_LABEL: AUC(0-t)

Request: So what's the measured AUC(0-t) for this one? C=CC[C@@H]1/C=C(\C)C[C@H](C)C[C@H](OC)[C@H]2O[C@@](O)(C(=O)C(=O)N3CCCC[C@H]3C(=O)O[C@H](/C(C)=C/[C@@H]3CC[C@@H](O)[C@H](OC)C3)[C@H](C)[C@@H](O)CC1=O)[C@H](C)C[C@@H]2OC
Result: ~23.5 ng·h/mL
